Reported EC50 values follow for various binders
# tgt: T1, human Claudin18.2 (human)
# T1 construct: also called CLDN18.2
# method-notes: cell ELISA, Claudin18.2-expressing HEK293T cells
Could you give me the number in nM? Just the number is fine.

Worked set:
Would you kindly share the measured EC50 for 260F8A6 (antibody, V domains shown, mouse hybridoma mAb) VH: QAYLQQSGAELVRSGASVKMSCRASGYTFTSHNMHWVKQTPGQGLEWIGYIYPGNGNTYYNQKFKGKATLTADTSSNTAYMQINSLTSEDSAVYFCVRDYYGNSFVYWGQGTLVTVSA VL: DVVMTQSPSSLTEKTGEKVSMSCKSSQSLLNSGNQKNYLTWYQQKPGQPPKLLIYWASTRESGVPDRFIGSGSGTDFTLTISSLQTEDLAVYYCQNNYMYPFTFGAGTKLELK ?
1.8

What value of measured EC50 is listed for 243B4F2 (antibody, V domains shown, mouse hybridoma mAb) VH: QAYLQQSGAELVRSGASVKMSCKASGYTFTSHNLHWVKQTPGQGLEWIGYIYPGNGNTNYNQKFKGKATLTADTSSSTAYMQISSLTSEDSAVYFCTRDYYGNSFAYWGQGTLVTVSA VL: DIVMTQSPSSLTEKAGERVSMSCKSSQSLFNSGNQKNYLTWYQQKPGQPPKLLIYWASTRESGVPDRFTGSGSGTDFTLTISSVQAEDLAVYYCQNNYWFPFTFGAGTKLELK ?
0.684

# query: EC50 of entry 250F4G1 (antibody, V domains shown, mouse hybridoma mAb) VH: QAYLQQSGAELVRSGASVKMSCKASGYTFTSHNMHWVKQTPGQGLEWIGYIYPGNGRTNYNQKFKGKATLTADTSSSTAYMQISSLTSEDSAVYFCTRDYYGNSFAYWGQGTLVTVSA VL: DIVMTQSPSSLTEKVGERVSMSCKSSQSLFNSGNQKNYLTWYQQKPGQPPKLLIYWASTRESGVPDRFTGSGSGTDFTLTISSVQAEDLAVYYCQNDYWYPFTFGAGTKLELK
0.415

Query: EC50; subject: 233D5E5 (antibody, V domains shown, mouse hybridoma mAb) VH: QAYLQQSGAELVRSGASVKMSCKASGYTFTSHNMHWVKQTPRQGLEWIGYIYPGNGDTNYNQKFKGKATLTADTSSSTAYMQISSLTSEDSAVYFCTRDYYGNSFAYWGQGTLVTVSA VL: DIVMTQSPSSLTEKAGERVSMSCKSSQSLFNSGNQKNYLTWYQQKPGQPPKLLIYWASTRESGVPDRFTGSGSGTDFTLTISSVQAEDLAVYYCQNAYWYPFTFGAGTKLELK
0.803

// query EC50 value for entry 185F2G12 (antibody, V domains shown, mouse hybridoma mAb) VH: QAYLQQSGAELVRSGASVKMSCKASGYTFTSYNMHWVRQTPGQGLEWIGYIYPGNGGTNYSQKFKGKASLTADTSSTTAYMQISSLTSEDSAVYFCATGRGFAYWGQGTLVTVSA VL: DIVMTQSPSSLTVTAGEKVTLSCKSSQSLFNTGNQKNYLTWYQQKPGQPPKLLIFRASTRESGVPDRFTGSGFGTDFTLTISSVQAEDLAVYYCQNDFSYPLTFGAGTKLELK
1.73

May I ask what EC50 has been recorded for 420H7E6 (antibody, V domains shown, mouse hybridoma mAb) VH: DVQLVESGGGLVQPGGSRKLSCVTSGFTFSSFGMHWIRQAPEKGLEWVAFISGGGSPIFYADSVKGRFTVSRDNPKNTLFLQMTGLRSEDTAMYFCARFYFGNSFAYWGQGTLVTVSA VL: DIVMAQSPSSLTVTAGEKVTMNCRSSQSLFNSGNQKNYLTWYQQKPGQPPKLLIYWASTRESGVPVRFTGSGSGTDFTLTISSVQAEDLAVYYCQTGFSYPLTFGPGTKLELK ?
2.94

New cases:
Form field: reported EC50 of 226A4B5 (antibody, V domains shown, mouse hybridoma mAb) VH: QAYLQQSGAELVRSGASVRMSCKASGFTFTSYNIHWVKQTPGQGLEWIGYIYPGSGGSNYNQKFMGKATLTADTSSSTVYMQISSLTSEDSAVYFCATGRGFAYWGQGTLVTVSA VL: DIVMTQSPSSLTVTAGEKVTMSCKSSQSLFNSGNQKNYLTWYQQKPGQPPKLLIYRASTRESGVPDRFTGSGSGTDFTLTISSVQAEDLAVYYCQNDYSYPLTFGTGTKLELK
1.59

Form field: reported EC50 of 419A5F3 (antibody, V domains shown, mouse hybridoma mAb) VH: DVQLVESGGGLVQPGGSRKLSCAASGFTFSGFGMHWIRQTPEKGLEWVAYISSDSRPIYYADTVKGRFTISRDNPKNTLFLQMTSLRSEDTAMYFCGRFYYGNSFDHWGQGTLVTVSA VL: DIVMTQSPSFLTVTAGEKVTLSCRSSQSLLNSGNQRNYLTWYQQKPGQPPKLLIYWASTRESGVPDRFTGSGSGTDFTLTISSVQAEDRALYYCQNAYSFPLTFGTGTKLELR
2.61

# lookup: EC50 of 260G9E8 (antibody, V domains shown, mouse hybridoma mAb) VH: QADLQQSGAELVRSGASVKMSCKASGYTFASHNMHWVKQTPGQGLEWIGYIYPGNGGTKYNQKFTGKATLTADTSSSTAYMQITSLTSEDSAVYFCARDYYGNSFAYWGQGTLVTVSA VL: DIVMTQSPSSLTEKAGEKVSMRCKSSQSLLNSGNQKNYLTWYQQKPGQPPKLLIYWASTRESGVPDRFTGSGSGTDFTLTISSVQADDLAVYYCQNDYMFPFTFGAGTKLELK
0.821
